This collection of values is drawn from patent EP1247803A2.

System: MET
Assay: MET biochemical kinase assay
Set-up: species or system human; concentration or dose not given beside the values
// returns class 0 unless Met Kinase % Inhibition is strictly below 50%, in which case class 1

>>> group_label("O=C1Nc2ccc(CCCl)cc2C1=Cc1ccc(Cl)s1 [10721/G07]")
"class 1"
>>> group_label("Cc1c(Br)ccc2c1C(=Cc1c[nH]cn1)C(=O)N2 [10725/C11]")
"class 1"

## Task Please state whether Met Kinase % Inhibition is below 50% for CNS(=O)(=O)c1ccc2c(c1)C(=Cc1cc(Cl)ccc1O)C(=O)N2 [10734/D04]
## Result class 1

## Task Please state whether Met Kinase % Inhibition is below 50% for O=C1Nc2ccc(CCCl)cc2C1=Cc1ccc2c(c1)Cc1ccccc1-2 [10728/G06]
## Result class 1
